# Substrate: CC(=O)CC(=O)SCCNC(=O)CCNC(=O)[C@H](O)C(C)(C)COP(=O)(O)OP(=O)(O)OC[C@H]1O[C@@H](n2cnc3c(N)ncnc32)[C@H](O)[C@@H]1OP(=O)(O)O
# ASSAY_INFO: purified protein
# Type: biochemical, Caenorhabditis elegans
# CONDITION: 100 µM NADH (saturating), 0.1 M citrate/phosphate pH 7.0, 0.1 mM dithiothreitol, 298 K, 23 nM protein, AACoA 30-70 µM, 25.0 °C
EXPERIMENTAL_ENDPOINT: kcat (s⁻¹)
Supply the numeric figure in s⁻¹, leaving out any unit text.

Answered examples (2):
3-hydroxyacyl-CoA dehydrogenase from C. elegans, R204A/Y209A mutant (enzyme, Caenorhabditis elegans, 3-hydroxyacyl-CoA dehydrogenase (cHAD), Caenorhabditis elegans, WormBase WBGene00010035, GenBank CAA80153.1; as m1 with R204A and Y209A; Made by overlapping PCR from the wild type plasmid, ligated into pEXS-CG (BamHI, EcoRI); also called cHAD R204A/Y209A; source: E. coli BL21 (DE3), purified (same procedure as the wild type); not shown: GST, C-terminal, cleaved) MFTAKCAMQNIRNVAIVGSGQMGSGIAQVTASSGFNVMLADVNKKALDRAMKAISQSVTHLSKKQKGTDKEKSDFVTLTMSRIKTCNNVSTAVADADLIIEAAIENIDLKRGIFAQIEQSCKKDSILTTNTSSFLLEDVAKGLQDKTRFGGLHFFNPVPVMKLLEVIRSDDTSDETYATLIKFGTAVGKTTVACKDSPGFIVNALLIPAFFEAARMYERGDASMTDIDEAMKLGAGHPMGPFELADYIGLDTVKFVMDGWAAKYPEVQLFEASPLVDKLVAEGKLGRKTGDGFYSYKK; 10
3-hydroxyacyl-CoA dehydrogenase from C. elegans, R204A mutant (enzyme, Caenorhabditis elegans, 3-hydroxyacyl-CoA dehydrogenase (cHAD), Caenorhabditis elegans, WormBase WBGene00010035, GenBank CAA80153.1; as m1 with R204A; Made by overlapping PCR from the wild type plasmid, ligated into pEXS-CG (BamHI, EcoRI); also called cHAD R204A; source: E. coli BL21 (DE3), purified (same procedure as the wild type); not shown: GST, C-terminal, cleaved) MFTAKCAMQNIRNVAIVGSGQMGSGIAQVTASSGFNVMLADVNKKALDRAMKAISQSVTHLSKKQKGTDKEKSDFVTLTMSRIKTCNNVSTAVADADLIIEAAIENIDLKRGIFAQIEQSCKKDSILTTNTSSFLLEDVAKGLQDKTRFGGLHFFNPVPVMKLLEVIRSDDTSDETYATLIKFGTAVGKTTVACKDSPGFIVNALLIPYFFEAARMYERGDASMTDIDEAMKLGAGHPMGPFELADYIGLDTVKFVMDGWAAKYPEVQLFEASPLVDKLVAEGKLGRKTGDGFYSYKK; 28

Dear colleague, I am looking for the recorded kcat of the following protein: 3-hydroxyacyl-CoA dehydrogenase from C. elegans, Y209A mutant (enzyme, Caenorhabditis elegans, 3-hydroxyacyl-CoA dehydrogenase (cHAD), Caenorhabditis elegans, WormBase WBGene00010035, GenBank CAA80153.1; as m1 with Y209A; Made by overlapping PCR from the wild type plasmid, ligated into pEXS-CG (BamHI, EcoRI); also called cHAD Y209A; source: E. coli BL21 (DE3), purified (same procedure as the wild type); not shown: GST, C-terminal, cleaved) MFTAKCAMQNIRNVAIVGSGQMGSGIAQVTASSGFNVMLADVNKKALDRAMKAISQSVTHLSKKQKGTDKEKSDFVTLTMSRIKTCNNVSTAVADADLIIEAAIENIDLKRGIFAQIEQSCKKDSILTTNTSSFLLEDVAKGLQDKTRFGGLHFFNPVPVMKLLEVIRSDDTSDETYATLIKFGTAVGKTTVACKDSPGFIVNRLLIPAFFEAARMYERGDASMTDIDEAMKLGAGHPMGPFELADYIGLDTVKFVMDGWAAKYPEVQLFEASPLVDKLVAEGKLGRKTGDGFYSYKK
17
